system: T1, human EpCAM (epithelial cell adhesion/activating molecule) (human, UniProt P16422 24-314)
T1 sequence: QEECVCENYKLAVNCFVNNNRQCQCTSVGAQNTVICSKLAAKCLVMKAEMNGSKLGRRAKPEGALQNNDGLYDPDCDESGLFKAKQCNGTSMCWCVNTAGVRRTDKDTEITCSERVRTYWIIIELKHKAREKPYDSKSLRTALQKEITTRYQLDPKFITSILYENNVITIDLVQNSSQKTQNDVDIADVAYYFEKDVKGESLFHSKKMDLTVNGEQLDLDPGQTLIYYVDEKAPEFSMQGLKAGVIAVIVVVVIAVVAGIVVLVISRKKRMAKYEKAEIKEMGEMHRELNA
assay-comment: cell-based or functional assay
recorded-metric: % Annexin V/PI-positive cells, NCI-N87, 10 µg/ml mAb

| binder | measured |
| --- | --- |
| murine monoclonal antibody 4D2 (antibody, mouse IgG1, V domains shown, Mouse IgG1, kappa, from hybridoma; also called m338-4D2.20) VH: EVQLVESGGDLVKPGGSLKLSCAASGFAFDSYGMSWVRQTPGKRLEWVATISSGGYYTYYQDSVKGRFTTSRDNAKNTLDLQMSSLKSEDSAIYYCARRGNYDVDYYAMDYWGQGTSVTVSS VL: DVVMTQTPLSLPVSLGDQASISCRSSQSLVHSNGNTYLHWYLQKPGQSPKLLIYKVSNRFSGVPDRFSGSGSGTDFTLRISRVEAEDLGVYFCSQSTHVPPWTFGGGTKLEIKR | 55% |
| murine monoclonal antibody 6D11 (antibody, mouse IgG1, V domains shown, Mouse IgG1, kappa, from hybridoma; also called m338-6D11.8) VH: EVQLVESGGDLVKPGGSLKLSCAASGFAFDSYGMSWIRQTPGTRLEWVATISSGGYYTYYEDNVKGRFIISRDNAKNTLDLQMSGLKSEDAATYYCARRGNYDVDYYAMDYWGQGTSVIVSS VL: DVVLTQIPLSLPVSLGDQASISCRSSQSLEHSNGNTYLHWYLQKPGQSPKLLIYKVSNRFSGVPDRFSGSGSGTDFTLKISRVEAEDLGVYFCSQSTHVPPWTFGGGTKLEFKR | 57% |
| murine monoclonal antibody 2D11 (antibody, mouse IgG1, V domains shown, Mouse IgG1, kappa, from hybridoma; also called m322-2D11.19) VH: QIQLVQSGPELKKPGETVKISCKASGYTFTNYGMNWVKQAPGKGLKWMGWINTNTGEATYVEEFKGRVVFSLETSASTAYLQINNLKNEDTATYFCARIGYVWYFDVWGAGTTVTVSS VL: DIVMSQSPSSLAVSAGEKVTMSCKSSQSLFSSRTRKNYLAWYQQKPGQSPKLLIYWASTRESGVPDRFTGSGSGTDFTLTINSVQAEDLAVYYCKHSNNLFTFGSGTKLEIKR | 51% |
| murine monoclonal antibody 12H8 (antibody, mouse IgG2a, V domains shown, Mouse IgG2a, kappa, from hybridoma; also called m342-12H8.3; m12H8) VH: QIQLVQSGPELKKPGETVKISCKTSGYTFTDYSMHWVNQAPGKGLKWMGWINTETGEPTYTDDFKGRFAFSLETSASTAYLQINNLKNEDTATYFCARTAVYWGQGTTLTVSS VL: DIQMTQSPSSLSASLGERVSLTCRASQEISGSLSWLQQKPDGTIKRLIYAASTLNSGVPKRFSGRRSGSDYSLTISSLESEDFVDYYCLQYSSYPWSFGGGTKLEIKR | 66% |
